- study-target: T1, human BCMA on BCMA expressing cell lines (human, UniProt Q02223 1-184)
- T1 sequence: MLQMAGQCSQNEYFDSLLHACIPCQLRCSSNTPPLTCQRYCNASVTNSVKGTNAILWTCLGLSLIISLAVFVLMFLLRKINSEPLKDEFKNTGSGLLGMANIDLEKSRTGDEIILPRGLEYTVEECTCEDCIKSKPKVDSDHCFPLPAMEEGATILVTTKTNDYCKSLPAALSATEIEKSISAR
- test-name: cell-based or functional assay
recorded-endpoint: TDCC OPM-2 EC50
The reply must contain the numeric value and, after it, the unit.

BCMA targeting trispecific protein 02G02 (other, trispecific; also called 02G02 TriTAC; not shown: anti-albumin domain, anti-CD3 domain and the linkers of the trispecific (TriTAC) format) VHH: EVQLVESGGGLVQPGRSLTLSCAASTNIFSITPMGWYRQAPGKQRELVAAIHGASTLYADSVKGRFTISRDNAKNSIYLQMNSLRPEDTALYYCNKVPWGDYHPGNVYWGQGTQVTVSS	6.6 pM

Next:
## Input Respond only with TDCC OPM-2 EC50 recorded for BCMA targeting trispecific protein 01H08 (other, trispecific; also called 01H08 TriTAC; not shown: the C-terminal His6 follows those missing domains and is left out) VHH: EVQLVESGGGLVQPGRSLTLSCAASTNIMSISPMGWYRQAPGKQRELVAAIHGFSTVYADSVKGRFTISRDNAKNSIYLQMNSLRPEDTALYYCNKVPWGDYHPGNVYWGQGTQVTVSS
## Output 3.1 pM
